- protocol.details: Pharmacokinetics in male CD2F1 mice
- Assay type: in vivo, mouse
- conditions: male, CD2F1, mouse, plasma, po, 10 mg/kg
readout.label: AUC (µM·h)
Please reply with the bare figure in µM·h and do not write the unit itself.

Q: May I ask what AUC has been recorded for CC(=O)O.O=C1C(=Cc2ccccc2F)CNCC1=Cc1ccccc1F [EF-24] ?
A: 0.599

###

- protocol.details: Pharmacokinetics in male CD2F1 mice
- Type: in vivo, mouse
- conditions: male, CD2F1, mouse, plasma, iv, 10 mg/kg, t1/2z (terminal elimination half-life), male CD2F1 mice
readout.label: half-life (h)
Your answer should be a plain number; it is taken to be in h.

Q: Given the entry CC(=O)O.O=C1C(=Cc2ccccc2F)CNCC1=Cc1ccccc1F , report its measured half-life.
A: 1.23

###

- protocol.details: EF-24 stability in mouse plasma
- Type: in vitro ADME
- conditions: mouse, plasma
readout.label: half-life at 31.25 nM (h)
Give the quantity in h, number only.

Q: Can you share its half-life at 31.25 nM? I mean this molecule: CC(=O)O.O=C1C(=Cc2ccccc2F)CNCC1=Cc1ccccc1F
A: 12

###

- protocol.details: Pharmacokinetics in male CD2F1 mice
- Format: in vivo, mouse
- conditions: male, CD2F1, mouse, plasma, iv, 10 mg/kg, Cmax, male CD2F1 mice
readout.label: Cmax
Answers without a unit are incomplete; give the number and then its unit.

Q: Given the entry CC(=O)O.O=C1C(=Cc2ccccc2F)CNCC1=Cc1ccccc1F , report its measured Cmax.
A: 2490 nM

###

- protocol.details: Pharmacokinetics in male CD2F1 mice
- Assay type: in vivo, mouse
- conditions: male, CD2F1, mouse, plasma, iv, 10 mg/kg
readout.label: Tmax (min)
Report only the number, with the unit min understood.

Q: I'd like to know its Tmax. The compound in question is CC(=O)O.O=C1C(=Cc2ccccc2F)CNCC1=Cc1ccccc1F [EF-24]
A: 2.7

###

- protocol.details: EF-24 stability in human plasma
- Assay type: in vitro ADME
- conditions: human, plasma, Half-life in plasma, 31.25 nM, 37°
readout.label: half-life at 31.25 nM (h)
Write the number in h without appending the unit.

Q: I have this molecule here, CC(=O)O.O=C1C(=Cc2ccccc2F)CNCC1=Cc1ccccc1F , and I need its recorded half-life at 31.25 nM.
A: 79

###

- protocol.details: EF-24 stability in human plasma
- Assay type: in vitro ADME
- conditions: human, plasma, Half-life in plasma, 31.25 nM, 4°
readout.label: half-life at 31.25 nM
Note: a bare number is incomplete; add the unit.

Q: // half-life at 31.25 nM lookup, key: CC(=O)O.O=C1C(=Cc2ccccc2F)CNCC1=Cc1ccccc1F [EF-24]
A: 84 h

###

- protocol.details: EF-24 stability in human plasma
- Format: in vitro ADME
- conditions: human, plasma, Half-life in plasma, 1000 nM, 37°
readout.label: half-life at 1000 nM

Q: Returns the measured half-life at 1000 nM for the input compound. Input: CC(=O)O.O=C1C(=Cc2ccccc2F)CNCC1=Cc1ccccc1F
A: 58 h

###

- protocol.details: EF-24 stability in mouse plasma
- Assay type: in vitro ADME
- conditions: mouse, plasma
readout.label: half-life at 1000 nM
The reply should read as a number followed by its unit.

Q: Fill in the blank: the reported half-life at 1000 nM of CC(=O)O.O=C1C(=Cc2ccccc2F)CNCC1=Cc1ccccc1F is ____.
A: 10 h

###

- protocol.details: Pharmacokinetics in male CD2F1 mice
- Format: in vivo, mouse
- conditions: male, CD2F1, mouse, plasma, iv, 10 mg/kg
readout.label: Vd (L/kg)
Numbers only here, please. The scale is L/kg.

Q: Please give the measured Vd for this molecule: CC(=O)O.O=C1C(=Cc2ccccc2F)CNCC1=Cc1ccccc1F [EF-24]
A: 4.85

###

- protocol.details: EF-24 stability in dog plasma
- Assay type: in vitro ADME
- conditions: dog, plasma
readout.label: half-life (h)
API: value field is a number in h; no unit string.

Q: Item CC(=O)O.O=C1C(=Cc2ccccc2F)CNCC1=Cc1ccccc1F has what recorded half-life?
A: 35

###

- protocol.details: EF-24 stability in human plasma
- Assay type: in vitro ADME
- conditions: human, plasma, Half-life in plasma, 1000 nM, 4°
readout.label: half-life at 1000 nM (h)
Please respond with the number in h and leave the unit unwritten.

Q: Reported half-life at 1000 nM, compound CC(=O)O.O=C1C(=Cc2ccccc2F)CNCC1=Cc1ccccc1F [EF-24] : ____
A: 100

###

- protocol.details: Pharmacokinetics in male CD2F1 mice
- Assay type: in vivo, mouse
- conditions: male, CD2F1, mouse, plasma, po, 10 mg/kg, t1/2z, male CD2F1 mice
readout.label: half-life

Q: Sample CC(=O)O.O=C1C(=Cc2ccccc2F)CNCC1=Cc1ccccc1F — what was its half-life?
A: ~3.33 h

###

- protocol.details: Pharmacokinetics in male CD2F1 mice
- Assay type: in vivo, mouse
- conditions: male, CD2F1, mouse, plasma, ip, 10 mg/kg, t1/2z, intraperitoneal, male CD2F1 mice
readout.label: half-life

Q: # query: half-life of entry CC(=O)O.O=C1C(=Cc2ccccc2F)CNCC1=Cc1ccccc1F
A: ~3.33 h

###

- protocol.details: EF-24 stability in dog plasma
- Assay type: in vitro ADME
- conditions: dog, plasma
readout.label: half-life at 1000 nM (h)
Note: unit h is implicit; provide only the numeric part.

Q: Can you look up the measured half-life at 1000 nM of CC(=O)O.O=C1C(=Cc2ccccc2F)CNCC1=Cc1ccccc1F for me?
A: 33

###

- protocol.details: EF-24 stability in dog plasma
- Type: in vitro ADME
- conditions: dog, plasma
readout.label: half-life at 31.25 nM (min)
Write the number in min without appending the unit.

Q: Which half-life at 31.25 nM reading was recorded for the compound CC(=O)O.O=C1C(=Cc2ccccc2F)CNCC1=Cc1ccccc1F ?
A: 2160

###

- protocol.details: Pharmacokinetics in male CD2F1 mice
- Assay type: in vivo, mouse
- conditions: male, CD2F1, mouse, plasma, ip, 10 mg/kg
readout.label: AUC (µM·h)
Output spec: scalar in µM·h, unitless text.

Q: Item under review: CC(=O)O.O=C1C(=Cc2ccccc2F)CNCC1=Cc1ccccc1F [EF-24] . Reported AUC?
A: 0.346

###

- protocol.details: Pharmacokinetics in male CD2F1 mice
- Type: in vivo, mouse
- conditions: male, CD2F1, mouse, plasma, ip, 10 mg/kg
readout.label: Tmax (min)
The reply should be a number in min, with the unit left off.

Q: What measured Tmax goes with CC(=O)O.O=C1C(=Cc2ccccc2F)CNCC1=Cc1ccccc1F ?
A: 3

###

- protocol.details: Pharmacokinetics in male CD2F1 mice
- Type: in vivo, mouse
- conditions: male, CD2F1, mouse, plasma, iv, 10 mg/kg
readout.label: AUC

Q: Tell me the measured AUC of CC(=O)O.O=C1C(=Cc2ccccc2F)CNCC1=Cc1ccccc1F , please.
A: 0.996 µM·h

###

- protocol.details: EF-24 stability in mouse plasma
- Type: in vitro ADME
- conditions: mouse, plasma
readout.label: half-life (h)
Write the answer as a number in h, unit excluded.

Q: What value of half-life has been reported for the following compound? CC(=O)O.O=C1C(=Cc2ccccc2F)CNCC1=Cc1ccccc1F [EF-24]
A: 11

###

- protocol.details: Pharmacokinetics in male CD2F1 mice
- Assay type: in vivo, mouse
- conditions: male, CD2F1, mouse, plasma, po, 10 mg/kg
readout.label: Tmax (min)
Answer in min, number only, no unit symbol.

Q: // lookup Tmax for CC(=O)O.O=C1C(=Cc2ccccc2F)CNCC1=Cc1ccccc1F [EF-24]
A: 3

###

- protocol.details: Pharmacokinetics in male CD2F1 mice
- Assay type: in vivo, mouse
- conditions: male, CD2F1, mouse, plasma, iv, 10 mg/kg, t1/2β, male CD2F1 mice
readout.label: half-life (min)
# value in min; strip the unit string

Q: Which half-life is listed for CC(=O)O.O=C1C(=Cc2ccccc2F)CNCC1=Cc1ccccc1F ?
A: 5.4
